- Target or test system: F508del-CFTR (Homo sapiens, UniProt P13569, DEL508-508)
- Sequence (P13569 with tags, fused parts or gaps DEL508-508): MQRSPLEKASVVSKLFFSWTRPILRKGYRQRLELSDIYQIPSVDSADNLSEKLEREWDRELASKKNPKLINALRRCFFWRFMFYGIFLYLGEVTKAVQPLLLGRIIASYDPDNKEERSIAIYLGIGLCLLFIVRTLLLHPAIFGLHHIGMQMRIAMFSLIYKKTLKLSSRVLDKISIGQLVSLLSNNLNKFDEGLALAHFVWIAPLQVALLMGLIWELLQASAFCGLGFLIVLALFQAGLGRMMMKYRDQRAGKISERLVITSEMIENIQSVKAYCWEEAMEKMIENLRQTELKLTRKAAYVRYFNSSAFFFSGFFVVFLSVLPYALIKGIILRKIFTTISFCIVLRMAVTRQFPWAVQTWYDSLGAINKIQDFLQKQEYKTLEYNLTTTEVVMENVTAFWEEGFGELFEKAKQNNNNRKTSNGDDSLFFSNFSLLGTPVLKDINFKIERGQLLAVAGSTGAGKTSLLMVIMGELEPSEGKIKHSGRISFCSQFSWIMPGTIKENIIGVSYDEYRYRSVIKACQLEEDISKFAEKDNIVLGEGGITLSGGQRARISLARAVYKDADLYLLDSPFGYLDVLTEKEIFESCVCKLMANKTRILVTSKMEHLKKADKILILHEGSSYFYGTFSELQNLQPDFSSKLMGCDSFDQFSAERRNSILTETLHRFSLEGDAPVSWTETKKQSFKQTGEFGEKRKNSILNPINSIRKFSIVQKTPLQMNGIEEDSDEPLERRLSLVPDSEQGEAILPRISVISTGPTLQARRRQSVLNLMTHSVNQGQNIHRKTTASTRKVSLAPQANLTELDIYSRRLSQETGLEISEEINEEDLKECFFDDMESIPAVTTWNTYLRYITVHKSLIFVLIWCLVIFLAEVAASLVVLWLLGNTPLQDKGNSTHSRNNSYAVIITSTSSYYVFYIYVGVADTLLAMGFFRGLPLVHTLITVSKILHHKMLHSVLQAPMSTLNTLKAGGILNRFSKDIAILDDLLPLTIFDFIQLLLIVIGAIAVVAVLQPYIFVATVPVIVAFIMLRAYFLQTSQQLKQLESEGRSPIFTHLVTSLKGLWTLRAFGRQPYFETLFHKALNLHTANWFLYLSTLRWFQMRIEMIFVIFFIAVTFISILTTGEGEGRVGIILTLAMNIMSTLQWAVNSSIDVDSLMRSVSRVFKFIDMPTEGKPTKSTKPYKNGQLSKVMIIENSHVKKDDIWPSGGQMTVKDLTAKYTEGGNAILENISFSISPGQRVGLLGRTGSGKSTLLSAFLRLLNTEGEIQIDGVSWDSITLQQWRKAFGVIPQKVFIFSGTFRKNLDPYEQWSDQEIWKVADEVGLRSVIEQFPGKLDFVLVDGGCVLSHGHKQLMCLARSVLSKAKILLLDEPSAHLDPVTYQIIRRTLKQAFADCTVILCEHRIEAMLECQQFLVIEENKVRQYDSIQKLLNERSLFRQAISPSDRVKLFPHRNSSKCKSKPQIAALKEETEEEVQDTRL
- Assay summary: HS-YFP functional assay in CFBE41o- cells stably overexpressing F508del-CFTR
- Condition set: 24 h treatment, 3 nM-10 µM range
Property name: pEC50
Remember, pEC50 is on a log scale: it is -log10 of the molar concentration.

Mol smiles	Recorded result
C[C@H]1NC(=O)N[C@H]1CCCCCC(=O)NCCOCCOCCOCCn1cc(-c2ccc(O[C@H]3CCCc4c(C(F)(F)F)nn(-c5cccc(C(=O)N(C)c6ccc(C7(C(F)(F)F)N=N7)cc6)c5)c43)cc2)nn1	6.32

Let's switch to this compound now.
// query pEC50 value for entry C#Cc1ccc(O[C@H]2CCCc3c(C(F)(F)F)nn(-c4cccc(C(=O)N(C)c5ccc6c(c5)OC(F)(F)O6)c4)c32)cc1
8.48

* * *

- Target or test system: F508del-CFTR (Homo sapiens, UniProt P13569, DEL508-508)
- Construct: expressed in transfected cells
- Assay summary: HS-YFP functional assay in CFBE41o- cells stably overexpressing F508del-CFTR
- Assay type: cell-based
- Condition set: 24 h treatment, values normalized to DMSO-incubated cells
We begin with a simple list: items and their reported HS-YFP assay in CFBE41o- cells Emax.
Reply with the value as a number alone.

Compound	Recorded result
C#Cc1ccc(O[C@H]2CCCc3c(C(F)(F)F)nn(-c4cccc(C(=O)N(C)c5ccc6c(c5)OC(F)(F)O6)c4)c32)cc1 [Compound 1]	3

Now for a further compound.
What does the data say about its HS-YFP assay in CFBE41o- cells Emax? Entry: C#Cc1ccc(O[C@H]2CCCc3c(C(F)(F)F)nn(-c4cccc(C(=O)N(C)c5ccc(C6(C(F)(F)F)N=N6)cc5)c4)c32)cc1 [PAP_2]
2.1

* * *

- Target or test system: wt-CFTR (Homo sapiens)
- Construct: expressed in transfected cells
- Sequence (P13569 whole entry): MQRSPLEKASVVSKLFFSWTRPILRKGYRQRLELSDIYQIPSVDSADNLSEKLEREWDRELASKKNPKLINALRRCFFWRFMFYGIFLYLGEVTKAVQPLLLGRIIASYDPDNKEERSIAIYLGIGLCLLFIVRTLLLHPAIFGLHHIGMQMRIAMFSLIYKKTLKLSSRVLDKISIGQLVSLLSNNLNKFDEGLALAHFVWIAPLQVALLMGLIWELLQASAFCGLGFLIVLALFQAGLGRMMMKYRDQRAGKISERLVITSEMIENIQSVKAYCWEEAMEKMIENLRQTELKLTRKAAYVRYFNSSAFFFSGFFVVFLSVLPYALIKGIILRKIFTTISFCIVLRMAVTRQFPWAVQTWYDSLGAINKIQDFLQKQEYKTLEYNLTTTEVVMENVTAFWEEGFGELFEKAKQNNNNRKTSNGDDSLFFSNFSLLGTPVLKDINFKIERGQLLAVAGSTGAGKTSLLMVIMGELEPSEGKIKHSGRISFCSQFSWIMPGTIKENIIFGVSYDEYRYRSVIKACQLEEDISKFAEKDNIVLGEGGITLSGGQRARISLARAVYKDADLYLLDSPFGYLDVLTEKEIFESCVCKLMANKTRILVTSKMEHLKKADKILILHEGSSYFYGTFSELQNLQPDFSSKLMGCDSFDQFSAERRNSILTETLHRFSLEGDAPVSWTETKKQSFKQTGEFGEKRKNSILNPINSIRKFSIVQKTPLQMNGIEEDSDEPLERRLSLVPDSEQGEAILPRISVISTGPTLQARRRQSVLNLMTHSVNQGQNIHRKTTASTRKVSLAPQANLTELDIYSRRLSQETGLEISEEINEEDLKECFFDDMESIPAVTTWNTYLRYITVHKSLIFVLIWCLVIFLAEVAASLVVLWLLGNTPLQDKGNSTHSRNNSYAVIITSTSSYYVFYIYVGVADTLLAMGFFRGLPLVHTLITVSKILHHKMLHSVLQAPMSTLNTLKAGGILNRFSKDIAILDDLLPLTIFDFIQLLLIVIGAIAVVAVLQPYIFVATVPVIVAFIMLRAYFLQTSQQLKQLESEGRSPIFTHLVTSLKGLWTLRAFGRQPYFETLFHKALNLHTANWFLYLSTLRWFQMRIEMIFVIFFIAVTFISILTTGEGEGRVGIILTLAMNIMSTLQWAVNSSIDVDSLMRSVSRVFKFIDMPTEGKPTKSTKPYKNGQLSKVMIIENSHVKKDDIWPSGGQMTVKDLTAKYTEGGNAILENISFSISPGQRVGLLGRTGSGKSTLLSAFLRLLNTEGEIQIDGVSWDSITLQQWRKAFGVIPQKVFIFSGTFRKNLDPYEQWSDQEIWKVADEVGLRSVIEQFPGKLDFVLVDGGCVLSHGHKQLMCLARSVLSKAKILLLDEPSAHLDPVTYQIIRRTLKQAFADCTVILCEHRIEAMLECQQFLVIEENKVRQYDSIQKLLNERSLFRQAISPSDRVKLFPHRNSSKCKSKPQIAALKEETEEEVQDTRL
- Assay summary: Live-cell photoaffinity labeling, streptavidin pull-down and CFTR Western blot
- Type: binding
- Condition set: wt-CFTR CFBE41o- cells, probe 1 μM, 2 h, UV 365 nm
Property name: CFTR in streptavidin pull-down (WB) after PAL

Molecule	Recorded result
C[C@H]1NC(=O)N[C@H]1CCCCCC(=O)NCCOCCOCCOCCn1cc(-c2ccc(O[C@H]3CCCc4c(C(F)(F)F)nn(-c5cccc(C(=O)Nc6ccc(C7(C(F)(F)F)N=N7)cc6)c5)c43)cc2)nn1 [PAP_N2 DS-biot]	not pulled down
C[C@H]1NC(=O)N[C@H]1CCCCCC(=O)NCCOCCOCCOCCn1cc(CCC2(CCNC(=O)c3ccc(O[C@H]4CCCc5c(C(F)(F)F)nn(-c6cccc(C(=O)N(C)c7ccc8c(c7)OC(F)(F)O8)c6)c54)cc3)N=N2)nn1 [PAP_1 DS-biot]	consistently captured
C[C@H]1NC(=O)N[C@H]1CCCCCC(=O)NCCOCCOCCOCCn1cc(-c2ccc(O[C@H]3CCCc4c(C(F)(F)F)nn(-c5cccc(C(=O)N(C)c6ccc(C7(C(F)(F)F)N=N7)cc6)c5)c43)cc2)nn1 [PAP_2 DS-biot]	consistently captured
C[C@H]1NC(=O)N[C@H]1CCCCCC(=O)NCCOCCOCCOCCn1cc(CCC2(CCNC(=O)c3ccc(O[C@H]4CCCc5c(C(F)(F)F)nn(-c6cccc(C(=O)Nc7ccc8c(c7)OC(F)(F)O8)c6)c54)cc3)N=N2)nn1 [PAP_N1 DS-biot]	not pulled down
